System: MDA-MB231
TEST NAME: Antiproliferation activity in vitro, cell count after 72 hours, sensitive breast tumoral line
Format: cell-based
RUN PARAMETERS: MDA-MB-231, MDA-MB231 sensitive human breast tumoral line, read-out: IC50 (MDA-MB231), concentration causing 50% inhibition of the cell proliferation
Protocol: The various compounds under test, dissolved in ethyl alcohol, were added at serial dilutions and the treated cells and control cells were incubated with ^3H-estradiol or in the presence of diethylstilbestrol according to the methods described by literature. The antiproliferation activity were verified in the same way by adding the compounds, dissolved in DMSO, to the medium and performing a cell count after 72 hours.
RESULT TYPE: pIC50
Formally, pIC50 is defined as -log10 of the concentration c, with c in mol/L.

Let me know recorded pIC50 for C#CCOc1ccc(C(=O)C=Cc2cccnc2)c(O)c1 [Compound X] , thanks.
5.43

For the compound C=C(C)COc1ccc(C(=O)C=Cc2ccc(OC)cc2OC)c(O)c1 [Compound XVII] , give its measured pIC50 value.
5.37

Identify measured pIC50 associated with CC(=O)Nc1ccc(C=CC(=O)c2ccc(OCC=C(C)C)cc2O)cc1 [Compound III]
5.09

Supply recorded pIC50 for CC(C)=CCOc1ccc(C(=O)C=Cc2ccco2)c(O)c1 [Compound XIV] here.
5.24

Please report pIC50 for the following compound: C=C(C)COc1ccc(C(=O)C=Cc2ccc(N(C)C)cc2)c(O)c1 [Compound IV]
5.12

Fill in pIC50 for record C=C(C)COc1ccc(C(=O)C=Cc2c[nH]c3ccccc23)c(O)c1 [Compound VI]
5.02

Return the recorded pIC50 value; entry: C=C(C)COc1ccc(C(=O)C=Cc2ccccc2)c(O)c1 [Compound XV]
4.97

Assign pIC50 to the following record: CC(C)=CCOc1ccc(C(=O)C=Cc2cccnc2)c(O)c1 [Compound II]
5.49

Supply recorded pIC50 for C=C(C)COc1ccc(C(=O)C=Cc2cccc(OC)c2)c(O)c1 [Compound IX] here.
5.30

Given the compound C#CCOc1ccc(C(=O)C=Cc2cccs2)c(O)c1 [Compound XIII] , write its reported pIC50.
5.31

Note pIC50 for the compound shown: CC(C)=CCOc1ccc(C(=O)C=Cc2c[nH]c3ccccc23)c(O)c1 [Compound V]
4.96

Return pIC50 (reported value) for this compound: C#CCOc1ccc(C(=O)C=Cc2c[nH]c3ccccc23)c(O)c1 [Compound VII]
5.15

Name the recorded pIC50 of the compound listed here: C=C(C)COc1ccc(C(=O)C=Cc2cccnc2)c(O)c1 [Compound VIII]
5.27

Answer with the recorded pIC50 of CC(C)=CCOc1ccc(C(=O)C=Cc2ccncc2)c(O)c1 [Compound I] only.
5.49

Read the entry C=C(C)COc1ccc(C(=O)C=Cc2cccs2)c(O)c1 [Compound XII] and write its reported pIC50.
5.28

Dear colleague, please send me the reported pIC50 for C#CCOc1ccc(C(=O)C=Cc2ccccc2)c(O)c1 [Compound XVI] when you can.
5.05

Let me know recorded pIC50 for CC(C)=CCOc1ccc(C(=O)C=Cc2cccs2)c(O)c1 [Compound XI] , thanks.
5.39

###

RESULT TYPE: melting point

Entry CSc1ccc(C=CC(=O)c2ccc(OCC=C(C)C)cc2O)cc1 needs its melting point filled in; supply it.
130 to 131 °C

# return recorded melting point for entry C#CCOc1ccc(C(=O)C=Cc2c(OC)cc(OC)cc2OC)c(O)c1
177 to 179 °C

For the molecule CC(C)=CCOc1ccc(C(=O)C=Cc2ccncc2)c(O)c1 , give its reported melting point.
99 to 100 °C

For CC(C)=CCOc1ccc(C(=O)C=Cc2cccnc2)c(O)c1 , write its melting point.
177 to 179 °C

Report melting point, nothing else, for this molecule: CC(C)=CCOc1ccc(C(=O)C=Cc2ccc(F)cc2)c(O)c1
96 to 97 °C
